Reference source: PubChem BioAssay (NCATS)

- ASSAY: Validation qHTS assay for inhibitors of Activation Induced Cytidine Deaminase (AID): UDG Counterscreen signal (AID 1347427)
- DETAILS: biochemical UDG counterscreen, fluorescence signal; series mostly up to 115 µM
The source made the active and inactive calls. Calls come from the whole dose curve; as a rule, active = well fitted curve in the direction sought with a large enough effect; inconclusive = small, poorly fitted or top-dose-only effect, or another doubt; inactive = no such curve, though single readings can be large or run the other way.

MOLECULE | outcome
O=c1cc(N2CCOCC2)oc2c(-c3ccccc3)cccc12 | inactive
O=c1c(O)c(-c2ccc(O)cc2O)oc2cc(O)cc(O)c12 | inactive
O=c1c(O)c(-c2cc(O)c(O)c(O)c2)oc2cc(O)cc(O)c12 | inactive
Oc1ccc(-c2nc(-c3ccc(F)cc3)c(-c3ccncc3)[nH]2)cc1 | inactive
COc1ccccc1N1CCN(CCN(C(=O)C2CCCCC2)c2ccccn2)CC1 | inactive
COc1cc2c(cc1OC)C1CC(=O)C(CC(C)C)CN1CC2 (centres undefined) | inactive
O=Nc1c(-c2c(O)[nH]c3cc(Br)ccc23)[nH]c2ccccc12 | inactive
NCCCCNCCCN | inactive
O=C1c2ccccc2-c2n[nH]c3cccc1c23 | inactive
